test system: tumour necrosis factor-α (TNF-α); assay: Mouse Tumour Necrosis Factor Test (Test B), mouse endotoxin shock model, serum TNF-α by ELISA; type: in vivo, BALB/c mice; conditions: Mus musculus; minimum effective oral dose giving significant reduction in serum TNF-α of ≥35%; dosed 2 h before LPS i.p.; ≤ = active at dose given but not tested at lower doses; read-out: MTNF:MED
parameter: minimal effective dose (mg/kg)

| compound | readout_qualifier | result_value |
| --- | --- | --- |
| O=C(CCc1ccccc1)N1CCCC(Cn2ccnc2)C1 (stereo not drawn) | = | 30 |
| COc1ccc(CCCN2CCC(CCn3ccnc3)CC2)cc1 | ≤ | 30 |
| CC(c1ccc(Cl)cc1)N1CCC(CCn2ccnc2)CC1 (stereo not drawn) | = | 30 |
| Cl.Cl.O=C(CCc1ccccc1)N1CCCCC1CCn1ccnc1 (stereo not drawn) | = | 100 |
| Cl.Cl.c1ccc(CCCN2CCC(CCn3ccnc3)CC2)cc1 | = | 30 |
| c1ccc(OCCN2CCC(CCn3ccnc3)CC2)cc1 | ≤ | 100 |

====

system: tumour necrosis factor-α (TNF-α); assay: Mouse Tumour Necrosis Factor Test (Test B), mouse endotoxin shock model, serum TNF-α by ELISA; assay type: in vivo, BALB/c mice; settings: Mus musculus; minimum effective oral dose giving significant reduction in serum TNF-α of ≥35%; dosed 2 h before LPS i.p.; ≤ = active at dose given but not tested at lower doses; read-out: MTNF:MED
parameter: minimal effective dose (mg/kg)

| compound | unit_info | readout_qualifier | result_value |
| --- | --- | --- | --- |
| Clc1ccc(CCCN2CCC(CCn3ccnc3)CC2)cc1 | mg/kg | ≤ | 30 |
| C(=Cc1ccccc1)CN1CCC(CCn2ccnc2)CC1 | mg/kg | ≤ | 30 |
| c1ccc(CCCN2CCCC(Cn3ccnc3)C2)cc1 (stereo not shown) | mg/kg | = | 100 |
| CC(Cn1ccnc1)C1CCN(CCCc2ccccc2)CC1 (stereo not shown) | mg/kg | = | 10 |
| c1ccc(CCCN2CCC(CCn3ncnn3)CC2)cc1 | mg/kg | = | 100 |
| c1ccc(CCCN2CCCC(CCn3ccnc3)C2)cc1 (stereo not shown) | mg/kg | = | 100 |
| c1ccc(CCCN2CCC(CCn3ccnc3-c3ccccc3)CC2)cc1 | mg/kg | = | 100 |
| O=C(c1ccccc1Cl)c1nccn1CCC1CCN(CCCc2ccccc2)CC1 | mg/kg | ≤ | 10 |
| O=C(CCCN1CCC(CCn2ccnc2)CC1)c1ccccc1 | mg/kg | ≤ | 30 |
| c1ccc(CCCN2CCC(CCn3cnc4ccccc43)CC2)cc1 | mg/kg | = | 30 |

====

test system: Zymosan Stimulated Macrophages; assay: Inhibition of Arachidonic Acid Release from Zymosan Stimulated Macrophages (Test D); format: cell-based, MF1 mice; details: Mus musculus, Macrophage, tested at 100, 50, 20, 10, 5 and 1 µM

| compound | unit_info | IC50 |
| --- | --- | --- |
| Cc1ncn(CCC2CCN(CCCc3ccccc3)CC2)c1C | µM | 18 |
| CCc1nccn1CCC1CCN(CCCc2ccccc2)CC1 | µM | 22 |
| c1ccc(CCCCN2CCC(CCn3ccnc3)CC2)cc1 | µM | 16 |
| CC(c1ccc(Cl)cc1)N1CCC(CCn2ccnc2)CC1 (stereo not shown) | µM | 56 |
| CSc1ccc(CCCN2CCC(CCn3ccnc3)CC2)cc1 | µM | 16 |
| C(=Cc1ccccc1)CN1CCC(CCn2ccnc2)CC1 | µM | 31 |
| c1ccc(OCCN2CCC(CCn3ccnc3)CC2)cc1 | µM | 18 |
| Cc1ccc(CCCN2CCC(CCn3ccnc3)CC2)cc1 | µM | 52 |
| CCCc1nccn1CCC1CCN(CCCc2ccccc2)CC1 | µM | 20 |
| c1ccc(CCCN2CCCC(Cn3ccnc3)C2)cc1 (stereo not shown) | µM | 18 |
